# ASSAY: MDR1 LLC-PK1 and BCRP MDCKII permeability assay: permeability coefficient (Papp)
# Format: in vitro ADME
Structures can show the parent of a compound that is named as a salt.
So basically: is Papp at 2 h, 1 µM under 30 ×10⁻⁶ cm/s? Then t. Not under? Then f.

> print(dat)
                                   compound  discrete.label
1  Cn1cnc2ccc(Nc3c(F)ccc(NS(=O)(=O)N4CC(COC(F)F)C4)c3Cl)c(F)c2c1=O [Example 139, trifluoroacetate]               f
2  CC[C@@H]1CCN(S(=O)(=O)Nc2ccc(F)c(Nc3ccc4ncn(C)c(=O)c4c3F)c2Cl)C1 [Example 62, trifluoroacetate]               t
3  CN(C)S(=O)(=O)Nc1ccc(F)c(Nc2ccc3ncn(C)c(=O)c3c2Cl)c1Cl               f
4  Cn1cnc2ccc(Nc3c(F)ccc(NS(=O)(=O)N4CC(OC(F)F)C4)c3Cl)c(F)c2c1=O               t
5  Cc1c(Nc2c(F)ccc(NS(=O)(=O)N3CCOCC3)c2Cl)ccc2ncn(C)c(=O)c12               t
6  Cc1c(Nc2c(F)ccc(NS(=O)(=O)N3CC(COC(F)F)C3)c2Cl)ccc2ncn(C)c(=O)c12 [Example 137, trifluoroacetate]               f
7  CO[C@@H]1CCN(S(=O)(=O)Nc2cc(F)c(F)c(Nc3ccc4ncn(C)c(=O)c4c3Cl)c2Cl)C1 [Example 32, trifluoroacetate]               f
